Source of measurements: PubChem BioAssay AID330

Tested on: P388 leukemia ip, CD2F1 mice, survival T/C
test_method_notes: NCI In Vivo Anticancer Drug Screen. Data for tumor model P388 Leukemia (intraperitoneal) in CD2F1 (CDF1) mice
condition_label: endpoint: median survival time; dose: 100.0 mg/kg/injection; schedule: Q01DX005 (ip); vehicle: saline; higher = longer survival
Inconclusive results and toxic doses are left out.
# key: entry, value: T/C
test_readout: T/C

>  <compound>
CCC(/C=N/N=C(N)N)=N\N=C(N)N

>  <result>
100 % of control

$$$$
>  <compound>
O=C1CC2(O)CSc3nc(=O)cc(n32)N1 (stereo not given)

>  <result>
106 % of control

$$$$
>  <compound>
O=C1NN2CCCN=C2c2cnccc21

>  <result>
97 % of control

$$$$
>  <compound>
CC(CO)(CO)N(CCO)CCO

>  <result>
101 % of control

$$$$
>  <compound>
COC1(CO)OCC(O)C(O)C1O (stereo not given)

>  <result>
93 % of control

$$$$
>  <compound>
NC(=Nc1ccccc1)NNC=O

>  <result>
104 % of control

$$$$
>  <compound>
CC(C)(C)OC(=O)N1CCCC1C(=O)N1CCCC1C(=O)Oc1ccccc1 (stereo not given)

>  <result>
100 % of control

$$$$
>  <compound>
Nc1nc(F)nc2c1nnn2C1OC(CO)C(O)C1O (stereo not given)

>  <result>
114 % of control

$$$$
>  <compound>
O=C1C[C@@H](c2ccccc2)NCCCCN(O)CCCN1

>  <result>
100 % of control

$$$$
>  <compound>
NC(CSCCCS(=O)(=O)O)C(=O)O (stereo not given)

>  <result>
98 % of control

$$$$
>  <compound>
Nc1ccc(C(=O)Nc2ccc(C(=O)Nc3ccc4cc(S(=O)(=O)O)cc(S(=O)(=O)O)c4c3)cc2)cc1

>  <result>
103 % of control

$$$$
>  <compound>
CCC(C)NC1(N(C)C)N=C(N(C)C)N=C(N(C)C)O1 (stereo not given)

>  <result>
99 % of control

$$$$
>  <compound>
CCCC(=O)NC

>  <result>
110 % of control

$$$$
>  <compound>
CCN(CCCl)/N=N/c1nc2c([nH]1)c(=O)n(C)c(=O)n2C

>  <result>
105 % of control

$$$$
>  <compound>
COc1ccc(C(=O)CCN(C)C)c2ccccc12

>  <result>
100 % of control

$$$$
>  <compound>
O=C1CNCC(=O)N1

>  <result>
99 % of control

$$$$
>  <compound>
CCCCCCNC(C)C

>  <result>
101 % of control

$$$$
>  <compound>
C[n+]1c(C[n+]2ccccc2)ccc2ccccc21

>  <result>
106 % of control

$$$$
>  <compound>
CC(O)C1CCCCN1 (stereo not given)

>  <result>
101 % of control

$$$$
>  <compound>
CCCCCCCCCCCCC1OCN2CCCCC12 (stereo not given)

>  <result>
100 % of control

$$$$
